// provenance: paper PMC4872217

# Experimental System: T1, BAG6_UBL (UBL domain of BAG6, residues 17-101) (UniProt P46379 17-101)
# T1 construct: BAG6 (BCL2-associated athanogene 6), UBL domain, residues 17-101; The general purification protocol describes TEV cleavage; also called BAG6 UBL domain; source: E. coli BL21 (DE3), purified
# T1 sequence (P46379 17-101): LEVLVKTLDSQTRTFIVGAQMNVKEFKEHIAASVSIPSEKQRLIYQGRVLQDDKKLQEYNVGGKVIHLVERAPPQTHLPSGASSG
# Experiment Summary: ITC; 500 μM RNF126_NZF (wild-type or mutant) injected into 50 μM BAG6_UBL in the cell; 25 °C; 10 mM potassium phosphate pH 6.0, 100 mM NaCl, 250 μM TCEP
# Condition Summary: both partners purified
pKd: −log10 of the molar value.
Listed binders paired with reported pKd
Readout Label: pKd

>  <Binder>
MAEASPHPGRYFCACCSVEIVPRLPDYICPRCESGFIEEL (domain or fragment, human, UniProt Q9BV68 1-40, looked up, RNF126, human, residues 1-40, with H14A; Made by PCR mutagenesis on pET28-GFP-RNF126 (1-40); in the native PAGE the mutants were GFP tagged; also called His14/Ala; source: E. coli BL21 (DE3), purified) [RNF126_NZF H14A mutant]

>  <Relation Symbol>
<

>  <Experimental Result>
4.30

$$$$
>  <Binder>
MAEASPHPGRYFCHCCSVEIVPRLPDYICPRCESGAIEEL (domain or fragment, human, UniProt Q9BV68 1-40, looked up, RNF126, human, residues 1-40, with F36A; Made by PCR mutagenesis on pET28-GFP-RNF126 (1-40); in the native PAGE the mutants were GFP tagged; also called Phe36/Ala; source: E. coli BL21 (DE3), purified) [RNF126_NZF F36A mutant]

>  <Relation Symbol>
=

>  <Experimental Result>
5.30

$$$$
>  <Binder>
MAEASPHPGRYFCHCCSVEIVPRLPDYICPRCESGFIEEL (domain or fragment, human, UniProt Q9BV68 1-40, looked up, RNF126, human, residues 1-40 (N-terminal zinc finger); 15N- or 15N,13C-labelled where it was the observed protein in NMR; Cultures were supplemented with 10 uM ZnCl2; also called RNF126 1-40; not shown: thioredoxin A, N-terminal, cleaved; His6, N-terminal, cleaved) [RNF126_NZF (RNF126 N-terminal zinc finger domain, residues 1-40)]

>  <Relation Symbol>
=

>  <Experimental Result>
6.40

$$$$
